Source: patent US11872221B2

Assay: Phase 1 drug-drug interaction study, plasma pharmacokinetics of dorzagliatin and sitagliptin
Format: in vivo, human
Conditions: human, plasma, oral; T2DM subjects; sitagliptin 100 mg QD alone (Day 5); read-out: Least squares geometric mean Cmax of plasma sitagliptin
Value Type: Cmax (ng/mL)
Give bare numbers, in ng/mL.

Give the measured Cmax of `N[C@@H](CC(=O)N1CCn2c(nnc2C(F)(F)F)C1)Cc1cc(F)c(F)cc1F` . 410

---

Assay: Phase 1 drug-drug interaction study, plasma pharmacokinetics of dorzagliatin and sitagliptin
Type: in vivo, human
Conditions: human, plasma, oral; T2DM subjects; dorzagliatin 75 mg BID alone (Day 15); read-out: Least squares geometric mean Cmax of plasma dorzagliatin
Value Type: Cmax

Give the measured Cmax of `CC(C)C[C@@H](C(=O)Nc1ccn(C[C@@H](O)CO)n1)N1CC(Oc2ccccc2Cl)=CC1=O` . 814 ng/mL
